# measured target: A1R (Homo sapiens, UniProt P30542)
# Sequence (P30542 whole entry): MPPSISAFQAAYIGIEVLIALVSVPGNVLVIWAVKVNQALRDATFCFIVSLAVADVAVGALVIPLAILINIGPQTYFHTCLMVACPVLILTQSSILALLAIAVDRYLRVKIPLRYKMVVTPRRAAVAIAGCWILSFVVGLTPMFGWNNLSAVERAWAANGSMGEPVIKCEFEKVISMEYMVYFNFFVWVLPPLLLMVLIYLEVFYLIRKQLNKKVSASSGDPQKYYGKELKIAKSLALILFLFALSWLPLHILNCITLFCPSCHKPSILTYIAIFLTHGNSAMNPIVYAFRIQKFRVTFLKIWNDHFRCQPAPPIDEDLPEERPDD
# assay name: cAMP accumulation assay
result type: EC50 (nM)
Your answer should be a plain number; it is taken to be in nM.

Looking up COc1cccc(-c2c(C#N)c(N)nc(SCc3cccc(C)n3)c2C#N)c1 [22b] , I found its EC50 recorded as 1

* * *

# measured target: recombinant A2BR (human) (Homo sapiens)
# Sequence (P29275 whole entry): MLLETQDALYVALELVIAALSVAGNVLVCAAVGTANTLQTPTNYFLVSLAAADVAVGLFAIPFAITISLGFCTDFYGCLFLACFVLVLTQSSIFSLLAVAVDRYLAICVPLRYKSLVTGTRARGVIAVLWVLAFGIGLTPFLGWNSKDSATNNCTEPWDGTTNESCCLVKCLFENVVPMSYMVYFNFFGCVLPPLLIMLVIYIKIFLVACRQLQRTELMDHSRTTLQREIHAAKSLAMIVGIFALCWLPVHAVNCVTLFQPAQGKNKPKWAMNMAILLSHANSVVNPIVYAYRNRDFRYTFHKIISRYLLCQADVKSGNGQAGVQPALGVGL
# assay name: Competition radioligand binding, human A2BR
Listing of recorded Ki by entry.

Please review the entries below; each comes with its answer.
{"compound": "COc1ccc(-c2c(C#N)c(N)nc(SCc3cccc(C)n3)c2C#N)cc1 [22a]", "Ki": "30 nM"}
{"compound": "COc1ccc(-c2nc(SCc3ncc[nH]3)nc(N)c2C#N)cc1 [21c]", "Ki": "237 nM"}
{"compound": "COc1ccc(-c2nc(SCc3cccc(C)n3)nc(N)c2C#N)cc1 [21a]", "Ki": "305 nM"}

# lookup: N#Cc1c(N)nc(SCc2ncc[nH]2)nc1-c1cccc(O)c1 [21f] on recombinant A2BR (human) (Homo sapiens), Ki = 38 nM

Item Cc1cccc(CSc2nc(N)c(C#N)c(-c3cccc(O)c3)n2)n1 [21e] ; assay system recombinant A2BR (human) (Homo sapiens); Ki reported as 126 nM

The compound Cc1cccc(CSc2nc(N)c(C#N)c(-c3cccc(O)c3)c2C#N)n1 [22e] , when measured on recombinant A2BR (human) (Homo sapiens), yielded Ki of 24 nM

I looked up CC(=O)Nc1ccc(-c2c(C#N)c(N)nc(SCc3cccc(C)n3)c2C#N)cc1 [22g] and its Ki for recombinant A2BR (human) (Homo sapiens) was 1.2 nM

Case COc1cccc(-c2nc(SCc3ncc[nH]3)nc(N)c2C#N)c1 [21d] , recombinant A2BR (human) (Homo sapiens), Ki recorded as 208 nM

The compound COc1cccc(-c2c(C#N)c(N)nc(SCc3cccc(C)n3)c2C#N)c1 [22b] , tested on recombinant A2BR (human) (Homo sapiens), showed Ki of 75 nM

* * *

# measured target: recombinant A3R (human) (Homo sapiens)
# Sequence (P0DMS8 1-318): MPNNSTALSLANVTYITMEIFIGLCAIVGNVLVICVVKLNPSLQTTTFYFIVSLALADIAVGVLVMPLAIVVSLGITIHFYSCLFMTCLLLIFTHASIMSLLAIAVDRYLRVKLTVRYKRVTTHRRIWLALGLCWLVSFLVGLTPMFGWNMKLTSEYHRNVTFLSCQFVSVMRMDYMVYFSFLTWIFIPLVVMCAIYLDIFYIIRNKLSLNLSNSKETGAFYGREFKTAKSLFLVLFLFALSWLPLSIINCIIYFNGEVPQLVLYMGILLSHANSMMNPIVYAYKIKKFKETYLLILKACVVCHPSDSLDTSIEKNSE
# assay name: Competition radioligand binding, human A3R
# assay context: read-out: % inhib., A3
result type: inhibition at 1 µM

Here are 3 compounds together with their reported answers.
{"compound": "COc1ccc(-c2nc(SCc3ncc[nH]3)nc(N)c2C#N)cc1 [21c]", "result type": "inhibition at 1 µM", "recorded result": "51%"}
{"compound": "COc1cccc(-c2c(C#N)c(N)nc(SCc3cccc(C)n3)c2C#N)c1 [22b]", "result type": "inhibition at 1 µM", "recorded result": "42%"}
{"compound": "COc1cccc(-c2nc(SCc3cccc(C)n3)nc(N)c2C#N)c1 [21b]", "result type": "inhibition at 1 µM", "recorded result": "42%"}

recombinant A3R (human) (Homo sapiens) inhibition at 1 µM of COc1ccc(-c2nc(SCc3cccc(C)n3)nc(N)c2C#N)cc1 [21a] is 44%

src = paper PMC8327296
